test system: Renilla luciferase RNA; experiment: Barcoded aptazyme variant library screen: un-cleaved Renilla luciferase RNA by barcode read counts, HEK293-T cells; format: cell-based; settings: un-cleaved Renilla luciferase RNA by barcode read counts; with 1 mM theophylline (ON) over without theophylline (OFF); HEK293-T cells; triplicate
Recorded Fold change in RNA expression between the ON state and the OFF state for the following molecules

INSERT INTO assay_data (molecule, experimental_result) VALUES
  ('RA369 (nucleic acid, expressed or natural sequence) DNA: GCGCGTCCTGGATTCGGAATACCAGCATCGTCTTGATGCCCTTGGAAGTCCGCGCGGAAACGCGTACATCCAGCTGACGAGTCCCAAATAGGACGAAACGCGC', 0.8),
  ('RA422 (nucleic acid, expressed or natural sequence) DNA: GCGCGTCCTGGATTCGCGGAAACGCGTACATCCAGCTGACGAGTCCCAAATAGGACGACGGAATACCAGCATCGTCTTGATGCCCTTGGAAGTCCGAACGCGC', 0.6),
  ('RA391 (nucleic acid, expressed or natural sequence) DNA: GCGCGTCCTGGATTCGCGGAAACGCGTACATCCAGCTGACGAGTCCCAGAGAATACCAGCATCGTCTTGATGCCCTTGGAAGTCTCAATAGGACGAAACGCGC', 0.7);

For RA358 (nucleic acid, expressed or natural sequence) DNA: GCGCGTCCTGGATTCGCGGAAACGCGTACATCCAGCTGACGAGCGGAATACCAGCATCGTCTTGATGCCCTTGGAAGTCCGTCCCAAATAGGACGAAACGCGC , what is its reported Fold change in RNA expression between the ON state and the OFF state?
0.8
